B1: TPR t1 (parent)
chain: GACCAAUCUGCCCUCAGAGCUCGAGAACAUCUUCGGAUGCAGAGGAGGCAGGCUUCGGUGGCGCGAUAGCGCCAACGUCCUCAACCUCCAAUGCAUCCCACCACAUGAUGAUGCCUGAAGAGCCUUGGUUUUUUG

- Variants of: B1
- assay remarks: polymerase ribozyme fitness, log enrichment relative to wild type (log ratio); higher = more active; in vitro selection for triplet polymerase activity
Please note: 1 applies when polymerase ribozyme fitness (log ratio) is -1 or greater, and 0 applies otherwise.

# variant identifier, class label
records = [
    ("U9A G42A C86U C104G G110U", 0),
]

Entry C49A G135U : is its polymerase ribozyme fitness (log ratio) no less than -1?
0

# bool: polymerase ribozyme fitness (log ratio) of G71A A91G A121U >= -1
1
